# protocol.text: Agonist activity at STING in human wild-type THP1-Dual cells co-expressing ISRE reporter assessed as IRF-mediated immune response incubated for 24 hrs by QUANTI Luc based microplate reader method
metric: EC50 (µM)

In [3]: df
Out[3]:
                               input_smiles  metric  reported
0  CCn1nc(C)cc1C(=O)Nc1nc2cc(C(N)=O)cc(OC)c2n1CCCCNC(=O)OC(C)(C)C    EC50     0.804

A = CCn1nc(C)cc1C(=O)Nc1nc2cc(C(N)=O)cc(OCCCN)c2n1C
B = CCn1nc(C)cc1C(=O)Nc1nc2cc(C(N)=O)cc(OC)c2n1C/C=C/Cn1c(NC(=O)c2cc(C)nn2CC)nc2cc(C(N)=O)cc(OCCCNC(=O)OC(C)(C)C)c21
Task: Given A and given B , which shows the smaller recorded EC50? Mark your answer with the label of the selected entry.
Output: B
(B: 0.000354 µM, A: 29.8 µM)

a = CCn1nc(C)cc1C(=O)Nc1nc2cc(C(N)=O)cc(OC)c2n1C/C=C/Cn1c(NC(=O)c2cc(C)nn2CC)nc2cc(C(N)=O)cc(OCCCN)c21
b = CCn1nc(C)cc1C(=O)Nc1nc2cc(C(N)=O)ccc2n1CCCCNC(=O)C(C)(C)C
Task: Returns the identifier with the smallest measured EC50 among a and b . Indicate your choice by writing its label.
Output: a
(a: 0.00162 µM, b: 51.1 µM)

Attribution: BindingDB's records for PubMed 35315650
